B1: CPEB3 Ribozyme (parent)
chain: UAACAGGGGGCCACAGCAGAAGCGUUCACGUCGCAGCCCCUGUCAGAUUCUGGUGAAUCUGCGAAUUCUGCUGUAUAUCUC

variants of: B1; test: self-cleavage, relative activity (ratio to wild type); higher = more cleavage; in vitro, sequencing

{"columns": ["Sequence content", "self-cleavage"],
 "data": [
  ["UAACAGGGGGCCACAGCAGAAGCGUUCACGUCGCAGCCCCUGUCAGAUUCUGGUGAAUCUGCGAACUCUGCUGUAUAUCAC [U66C U80A]", 0.48],
  ["UAACAGGGGGCCACAGCAGAAGCGUACACGUCGCGGCCCCUGUCAGAUUCUGGUGAAUCUGCGAAUUCUGCUGUAUAUCUC [U26A A35G]", 1.29],
  ["UAACAGGGGGCCACAGCGGAAGCGUUCACGUCGCAGCCCCUGUCAGAUUCUGGUGUAUCUGCGAAUUCUGCUGUAUAUCUC [A18G A56U]", 0.35],
  ["UAACAAGGGGCCACAGCAGAGGCGUUCACGUCGCAGCCCCUGUCAGAUUCUGGUGAAUCUGCGAAUUCUGCUGUAUAUCUC [G6A A21G]", 0.49],
  ["UAACGGGGGGCCACAGCAGAAGCGUUCACGUCGCAGCCCCUGUCAGAUUCUUGUGAAUCUGCGAAUUCUGCUGUAUAUCUC [A5G G52U]", 0.73],
  ["UAACAGGAGGCCACAGCAGAAGCGUUCACGUCGCAGCCCCUGUCAGAUUCUGGUGAAUCUGCGAAUUCUGCUAUAUAUCUC [G8A G73A]", 0.18],
  ["UAACAGGGGGCCACAGCAGAAGCGUACACGUCGCAGCCCCUGUCAGAUUCUGGUGAAUCUGCGAAUUCUGCUGAAUAUCUC [U26A U74A]", 1.31],
  ["UAACAGGGGGCCACAGAAGAAGCGUUCACGUCGCAGCCCCUGUCAGAUUCUGAUGAAUCUGCGAAUUCUGCUGUAUAUCUC [C17A G53A]", 0.68],
  ["CAACAGGGGGCCACAGCAGAAGCGUUCACGUCGCAGCCCCUGUCAGAUUCUGGUGAAUCUGCGUAUUCUGCUGUAUAUCUC [U1C A64U]", 0.26],
  ["UAACAGGGGGCCACAGCAGAAGCGUUAACGUCGCAGCCCCUGUCAGAUUCUGGUGAAUCUGCGAAUACUGCUGUAUAUCUC [C27A U67A]", 0.18],
  ["UAACAGGGGGCCACAGCAGAAGCGUUCACGUCGCAGCCCCUGUUAGAUUCUGGUGAAUCUGAGAAUUCUGCUGUAUAUCUC [C44U C62A]", 0.14],
  ["UAACAGGGGGCCACAGCAGAAGCGGUCACGUCGCAGCCCCUGUCAGAUUCUGGUGAAUCUGCGAAUUCUGCUGUGUAUCUC [U25G A75G]", 0.29],
  ["UAACAGGGGGCCACAGCAGAAGCGCUCACGUCGCAGCCCCUGUCAGAUUCUGGUGAAUCUGCGAAUCCUGCUGUAUAUCUC [U25C U67C]", 0.2],
  ["UAACAGGGGGCCAUAGCAGAAGCGUUCACGUCACAGCCCCUGUCAGAUUCUGGUGAAUCUGCGAAUUCUGCUGUAUAUCUC [C14U G33A]", 0.21],
  ["UAACAGGGGGCCACAGCAGAAGCGUUCACGUCGCAGCCCCUGACAGAUUCUGGUGAAUCUGUGAAUUCUGCUGUAUAUCUC [U43A C62U]", 0.39],
  ["UAACAGGGGGCCACAGCAGAAGCGUUCACGUCGCAGCCCCUGUCAGAUUCAGGUGAAUCUGCGAAUUCUGCUGUAUAUUUC [U51A C79U]", 1.18],
  ["UAACAGGGGGCCACAGCAGAAGCGUUCACGUCGCAGCCCCUGUCAGAAUCUGGUGAAUCUGCGAAAUCUGCUGUAUAUCUC [U48A U66A]", 0.36],
  ["UAACAGGGGGCCACAGCAGAAGCGUUCACGUCGCAGCCCCUGUCAGAUUCUGGUGAAUCUGCGAAUUCCGCUGUUUAUCUC [U69C A75U]", 0.44],
  ["UAACAGGGGGCCACAGCAGAGGCGUUUACGUCGCAGCCCCUGUCAGAUUCUGGUGAAUCUGCGAAUUCUGCUGUAUAUCUC [A21G C27U]", 0.18],
  ["UAACAGGGGGCCACAGCAGAAGCGUUCACCUCGCAGCCCCUGUCAGACUCUGGUGAAUCUGCGAAUUCUGCUGUAUAUCUC [G30C U48C]", 0.16],
  ["CAACAGGGGGCCACAGCAGAAGCGUUCACGUCGCAGCCCCUGUCAGAUUCUGGUGAAUCUGCGAAUUCUGCAGUAUAUCUC [U1C U72A]", 0.66],
  ["UAACAGGGGGCCACAGCAGAAGCGUCCACGUCGCAGCCCCUGUCAGAUUCUGGUGAAUCUUCGAAUUCUGCUGUAUAUCUC [U26C G61U]", 0.35],
  ["UAACAGGGGGCCACAGCAGAAGCGUUCACGUCGCAGCCCCUGUCAGAUUCUGGGGAAUCUGCGAAUUCUGCAGUAUAUCUC [U54G U72A]", 0.41],
  ["UAACAGGGGGCCAAAGCAGAAGCGUUCACGUCGCAGCCCCUGUCUGAUUCUGGUGAAUCUGCGAAUUCUGCUGUAUAUCUC [C14A A45U]", 0.77],
  ["UAGCAGGGGGCCACAGCAGAAGCGUUCACGUCGCAGCCCCUGUCAGAUUCUGGUGAAUCUGCGAAUUCUGGUGUAUAUCUC [A3G C71G]", 0.57],
  ["UAACAGGGGGCCACAGCAGAGGAGUUCACGUCGCAGCCCCUGUCAGAUUCUGGUGAAUCUGCGAAUUCUGCUGUAUAUCUC [A21G C23A]", 0.32],
  ["UAACAGGGGGCCACAGAAGGAGCGUUCACGUCGCAGCCCCUGUCAGAUUCUGGUGAAUCUGCGAAUUCUGCUGUAUAUCUC [C17A A20G]", 0.3],
  ["UAACAGGGGGCCACGGCAGAAGCGUUCACGUCGCAGCCCCUGUCAGAUUCUGGUGAAUCUGCGAAUUCUGCUGUAUUUCUC [A15G A77U]", 0.97],
  ["UAACAGGGAGCCACAGCAGAAGCGUUCACGUCGCAGCCCCUGUCAGAUUCUGGUGAAUCUGCGAAUUCUGCAGUAUAUCUC [G9A U72A]", 0.23],
  ["UAACAGGGGGCCACAGCAGAAGCGUUCACGUCGCAGCCCCUGUCAGAAUCUGGAGAAUCUGCGAAUUCUGCUGUAUAUCUC [U48A U54A]", 0.43],
  ["UAAAAGGGGGCCACAGCAGAAGCGUUCACGUCGCAGCCCCUGUCAGAUUCUGGUGAAUCUGCGAAUACUGCUGUAUAUCUC [C4A U67A]", 1],
  ["UAACAGGGUGCCACAGCAGAAGCGUUCACGUCGCAGCCCCUGUCAGAUUCUGGUGAAUCUGCGAAUUCUGCUGUAUAUCUC [G9U]", 0.24],
  ["UAACAGGGGGCCACAGCAGAAGCGUUCACGUCGCAGCCCCUGUCAGAUUCUGGUGAAUCUCCGUAUUCUGCUGUAUAUCUC [G61C A64U]", 0.32],
  ["UAACAGGGGGCCACAGCAGAAGCGUUCACGUCGCAGCCCCCGUCAGAUUCUGGUGAAUCUCCGAAUUCUGCUGUAUAUCUC [U41C G61C]", 0.21],
  ["UAACAGGGGGCCACAGCAGAAGCGUUCACGUCGCAGGCCCUGUCAGAUUCUGGUGAAUCUGCGAAUUCUGCUGUAUAUCCC [C37G U80C]", 1],
  ["UAACAGGGGGCCACAGCAGAAGCGUUCACGUCGCAGCCCCUGACAGAUUCUGGUGAAUCUGCGAGUUCUGCUGUAUAUCUC [U43A A65G]", 0.93],
  ["UUACAGGGGGCCACAGCAGAAGCGUUCACGUCGCAGCCCCUGCCAGAUUCUGGUGAAUCUGCGAAUUCUGCUGUAUAUCUC [A2U U43C]", 0.47],
  ["UAACAGGGGGCCACAGCAGAAGCGUUCACGUCGCAGCCCCUGUCAGAUUCUGGUGAAUCUGCGCAUUCCGCUGUAUAUCUC [A64C U69C]", 0.4],
  ["UAACAGGGGGCCACAGCAGAAGCGUUCACGUCGCAGCCCCUGUCAGAUUCUGAUGAAUCAGCGAAUUCUGCUGUAUAUCUC [G53A U60A]", 0.68],
  ["UAACAGGGGGCCACAGCAGAAGCGUUCACGUCGAAGCCCCUGUCAGACUCUGGUGAAUCUGCGAAUUCUGCUGUAUAUCUC [C34A U48C]", 0.13],
  ["UAACAGGGGGCCACAGCAGAAGCGUUCAAGUCGCAGCCCCUGUCAGAUUCUGGUGAAUCUGUGAAUUCUGCUGUAUAUCUC [C29A C62U]", 0.15],
  ["UAACAGGGGGCCACAGCAGAAGCCUUCACGUCGCAGCCCCUGUCAGAUUCUGGUGAAUCUGCGAAUUCUGCUGUACAUCUC [G24C U76C]", 0.2],
  ["CAACAGGGGCCCACAGCAGAAGCGUUCACGUCGCAGCCCCUGUCAGAUUCUGGUGAAUCUGCGAAUUCUGCUGUAUAUCUC [U1C G10C]", 0.17],
  ["UAACAGGGGGCCACAGCAGAAGCGUUCACGGCGCAGCCCCUGUUAGAUUCUGGUGAAUCUGCGAAUUCUGCUGUAUAUCUC [U31G C44U]", 0.16],
  ["UAACAGGGGGCCACAGCAGAAGCGUUCACGUCACAGCCCCUGUCAGAUUCUGGUGAAUCCGCGAAUUCUGCUGUAUAUCUC [G33A U60C]", 0.24]
]}
